# Condition Parameters: in 1,4-dioxane, 313.15 K
Readout: solubility (mole fraction)
Answers are plain numbers.

Entry COc1ccc2c(c1)c(CC(=O)O)c(C)n2C(=O)c1ccc(Cl)cc1 ; solubility (mole fraction) = 0.0477

###

# Condition Parameters: in water, 293.15 K
Readout: solubility (mole fraction)

Entry COc1ccc2c(c1)c(CC(=O)O)c(C)n2C(=O)c1ccc(Cl)cc1 ; solubility (mole fraction) = 7.81e-07

###

# Condition Parameters: in water, 303.15 K
Readout: solubility (mole fraction)
Numbers only.

Entry COc1ccc2c(c1)c(CC(=O)O)c(C)n2C(=O)c1ccc(Cl)cc1 ; solubility (mole fraction) = 1.1e-06
